# Lookup of reported normalized growth keyed by entry
# method-notes: chemical genetic growth profiling, strain panel (AID 1159580);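 note: tested at 20 µM; growth read once vehicle control cultures reached saturation at 30 °C; 1 = growth at the plate median or of vehicle wells; lower values mean less growth of the strain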
# test-settings: S. cerevisiae deletion strains, growth OD, locus YNL209W, strain ssb2, active compounds read low
The campaign covered roughly 5,500 compounds. About 2,000 (36%) were called active. Inconclusive results (about 18%) are left out. This is one part of the list.
assay-metric: normalized growth

compound: O=P1(NCCCl)OCCCN1CCCl (stereo not given)
assay-metric: normalized growth
value-observed: 0.991

compound: CC(C)=CCc1c2c(c3occ(-c4ccc(O)c(O)c4)c(=O)c3c1O)C=CC(C)(C)O2
assay-metric: normalized growth
value-observed: 0.883

compound: CC(=O)c1ccc(O)c(CC=C(C)C)c1
assay-metric: normalized growth
value-observed: 0.997

compound: CC(=O)c1cc(CC=C(C)C)c(O)c(CC=C(C)C)c1
assay-metric: normalized growth
value-observed: 1.01

compound: Cc1scc2c1N(C(=O)CN1CCN(C)CC1)c1ccccc1NC2=O
assay-metric: normalized growth
value-observed: 0.973
